So I've got a bunch of compounds here, and I need their logP values.
Assay: Partition coefficient, log P of the compound
Format: physicochemical
Conditions: octanol/water

{"smiles_record": "Nc1ccc(-c2nc3ccc(-c4nc5ccccc5s4)cc3s2)cc1I", "endpoint_value": 2.7}

Now look at this entry.
Tell me measured logP for Nc1ccc(-c2nc3ccc(-c4nc5ccccc5s4)cc3s2)cc1[125I] please.
2.7

---

Entries with their measured Ki, system Amyloid-beta precursor protein (Homo sapiens, UniProt P05067):
Answers are plain numbers, in nM.

Example results:
{"smiles_record": "Nc1ccc(-c2nc3ccc(-c4nc5ccccc5s4)cc3s2)cc1", "endpoint_value": 25}
{"smiles_record": "CNc1ccc(-c2nc3ccc(-c4nc5ccccc5s4)cc3s2)cc1", "endpoint_value": 22}
{"smiles_record": "Nc1ccc(-c2nc3ccc(-c4nc5ccccc5s4)cc3s2)cc1I", "endpoint_value": 21}

Send back Amyloid-beta precursor protein (Homo sapiens, UniProt P05067) Ki of Nc1ccc(-c2nc3ccc(-c4nc5ccc(Cl)cc5s4)cc3s2)cc1 only.
34

Entry source: ChEMBL document CHEMBL1147186
